Ki values by entry
study_target: GABA-A receptor; alpha-3/beta-3/gamma-2 (Homo sapiens, UniProt P18507+P28472+P34903)
Sequence (P18507 whole entry): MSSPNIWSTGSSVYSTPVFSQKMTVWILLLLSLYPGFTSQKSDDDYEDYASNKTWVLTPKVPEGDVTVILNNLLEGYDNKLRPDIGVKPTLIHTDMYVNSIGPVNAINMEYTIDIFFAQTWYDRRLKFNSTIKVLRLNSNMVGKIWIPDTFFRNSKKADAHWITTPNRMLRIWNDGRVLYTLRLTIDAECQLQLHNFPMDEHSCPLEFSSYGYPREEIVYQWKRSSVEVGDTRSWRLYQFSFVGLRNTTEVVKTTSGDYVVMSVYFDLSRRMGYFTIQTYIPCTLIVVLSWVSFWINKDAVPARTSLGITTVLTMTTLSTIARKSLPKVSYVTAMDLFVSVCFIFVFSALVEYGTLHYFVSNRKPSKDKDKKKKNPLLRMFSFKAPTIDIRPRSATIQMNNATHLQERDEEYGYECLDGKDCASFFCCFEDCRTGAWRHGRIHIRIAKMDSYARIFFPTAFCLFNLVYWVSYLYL
Sequence (P28472 whole entry): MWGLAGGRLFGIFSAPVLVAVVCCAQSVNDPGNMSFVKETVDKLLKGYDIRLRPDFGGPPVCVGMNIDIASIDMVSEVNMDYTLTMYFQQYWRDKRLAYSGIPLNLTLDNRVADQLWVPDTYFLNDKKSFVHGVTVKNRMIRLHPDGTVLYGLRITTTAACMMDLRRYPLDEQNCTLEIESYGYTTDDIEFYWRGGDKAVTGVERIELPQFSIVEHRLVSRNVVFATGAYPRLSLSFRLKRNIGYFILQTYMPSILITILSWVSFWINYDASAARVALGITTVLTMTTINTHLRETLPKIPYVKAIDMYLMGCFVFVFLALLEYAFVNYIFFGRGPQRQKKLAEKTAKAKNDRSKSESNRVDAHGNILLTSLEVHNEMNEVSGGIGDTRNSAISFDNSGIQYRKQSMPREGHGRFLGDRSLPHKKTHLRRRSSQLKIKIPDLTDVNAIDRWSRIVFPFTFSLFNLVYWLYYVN
Sequence (P34903 whole entry): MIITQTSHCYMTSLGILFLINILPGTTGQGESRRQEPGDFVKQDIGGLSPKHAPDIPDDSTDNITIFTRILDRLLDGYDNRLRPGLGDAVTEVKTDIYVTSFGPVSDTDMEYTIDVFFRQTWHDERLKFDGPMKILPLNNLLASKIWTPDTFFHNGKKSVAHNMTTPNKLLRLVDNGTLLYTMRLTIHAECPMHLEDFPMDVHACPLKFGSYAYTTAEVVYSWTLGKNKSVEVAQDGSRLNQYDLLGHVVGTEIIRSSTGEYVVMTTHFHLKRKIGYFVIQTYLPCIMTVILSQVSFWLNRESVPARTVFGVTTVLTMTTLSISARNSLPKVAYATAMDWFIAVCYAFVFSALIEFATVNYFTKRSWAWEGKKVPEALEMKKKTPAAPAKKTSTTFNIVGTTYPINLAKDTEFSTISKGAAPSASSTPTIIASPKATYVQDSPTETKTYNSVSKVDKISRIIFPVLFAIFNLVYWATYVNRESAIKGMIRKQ
test_details: Inhibition of [3H]Ro-151788 binding to recombinant human gamma-aminobutyric-acid A receptor alpha-3-beta-3-gamma-2 subtype expressed in L (tk-) cells
The answer is to be given in µM; state only the numeric part.

Examples with answers:
{"columns": ["compound_smiles", "result"],
 "data": [
  ["c1ccc(-c2nnc3c4c(c(OCc5cnc6ccccc6n5)nn23)C2CCC4CC2)cc1", 0.026],
  ["c1ccc(Cn2ccnc2COc2nn3c(-c4ccccc4)nnc3c3c2C2CCC3CC2)cc1", 0.002],
  ["Cc1cccc(CCCOc2nn3c(-c4ccccc4)nnc3c3c2C2CCC3CC2)n1", 0.24]
]}

Now turn to the next compound.
[ask] I have this compound here, `c1ccc(-c2nnc3c4c(c(OCc5cccnc5)nn23)C2CCC4CC2)cc1` , and I need its recorded Ki.
[reply] 0.025
